Where do these numbers come from? They come from patent US20250162988A1.

assay: Evaluation of brain penetration in mice (single oral dose, plasma and brain level by LC/MS/MS); format: in vivo, C57BL/6J mice; settings: Test 1; 1 mg/kg single oral dose; mean ± S.D.
Overview of reported Brain level at the time of brain Cmax across a group of molecules:
Reply numerically in pmol/g, unit not repeated.

Solved entries (count: 4):
{"columns": ["molecule", "unitName", "Brain level at the time of brain Cmax"],
 "data": [
  ["C[C@H](CN1CC[C@@H](CC(F)F)C1)[C@H]1CC[C@H]2/C(=C/C=C3C[C@@H](O)C[C@H](O)C3)CCC[C@]12C [Compound (D)]", "pmol/g", 80],
  ["C[C@H](CCN1CCOCC1)[C@H]1CC[C@H]2/C(=C/C=C3C[C@@H](O)C[C@H](O)C3)CCC[C@]12C [Compound (E)]", "pmol/g", 595],
  ["C[C@H](CN1CC[C@@H](C(C)(F)F)C1)[C@H]1CC[C@H]2/C(=C/C=C3C[C@@H](O)C[C@H](O)C3)CCC[C@]12C [Compound (C)]", "pmol/g", 562],
  ["C[C@H](CN1CC[C@@H](C(F)F)C1)[C@H]1CC[C@H]2/C(=C/C=C3C[C@@H](O)C[C@H](O)C3)CCC[C@]12C [Compound (B)]", "pmol/g", 384]
]}

Query molecule follows.
Give its Brain level at the time of brain Cmax value. Item: C[C@H](CN1CC[C@H](C(F)F)C1)[C@H]1CC[C@H]2/C(=C/C=C3C[C@@H](O)C[C@H](O)C3)CCC[C@]12C [Compound (A)]
529
